tested on: UCHL1, P09936
Sequence (P09936 whole entry, looked up, the tested form may be a part): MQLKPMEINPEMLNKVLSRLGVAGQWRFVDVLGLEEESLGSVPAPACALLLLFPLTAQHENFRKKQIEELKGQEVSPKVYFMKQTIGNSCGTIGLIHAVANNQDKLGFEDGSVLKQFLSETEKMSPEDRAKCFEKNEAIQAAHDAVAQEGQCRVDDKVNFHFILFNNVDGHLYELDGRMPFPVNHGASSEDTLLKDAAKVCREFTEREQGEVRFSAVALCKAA
assay summary: median log2 fold change of GCK-ALFA target abundance (FLAG IP / Myc IP barcode read proportion) (log2 ratio); each designed protein is fused to an ALFA-tag nanobody in HEK293 cells to bring the named protein to FLAG-tagged glucokinase (GCK); Myc marks an untargeted standard; higher = target protein stabilised (more abundant)
assay conditions: target protein: 3xFLAG-MCP-GCK-ALFA reporter; HEK293 landing pad (RPLP)
Response key: true (1) means median log2 fold change >= 0.04; false (0) means median log2 fold change < 0.04.

Look over these answered cases.
{"binder": "uchl1_2_7543 (protein) KPVFVGVLLELEARDEATGRVYRARRTLIGTEDGIEAMAEEVRRLVREFWEATGVPVRARVTIVSTREEVAERLRRALEAAHEELRAEGIDVTLEITVRV", "class assignment": "true (1)"}
{"binder": "uchl1_179_7504 (protein) ARRLVRIRATIVFPRSTTREEALAVARRIHAALKELGVTGLINLRVSRYNPENNPEHPDRMVIRLGLVVPEELADAVEAAIRALAAEAGAEIEIEREAIA", "class assignment": "true (1)"}
{"binder": "uchl1_122_7433 (protein) MITIEVEVTSSLSPEALAILKEYAARLLDNAEFKEEKLSPGTLLLTVTGELKDVTDEEILAIENEALERASKMQTLTPNQRVSFGNALRRIARAVAKALA", "class assignment": "false (0)"}
{"binder": "uchl1_143_7458 (protein) GLEAIPVLEVHLRVTPADTPEEIRARLMAAIEEAAAAGKALRIVITVEGDANLRVMVGNVAKRVAREAARRYGATLPSLTIVARDAETGREQLLAEADFR", "class assignment": "true (1)"}

Asked: Assess whether reported median log2 fold change for uchl1_2_7560 (protein) KTQFVGVRVDITSLNPETGEVFRARRTLIGTEDSLEAMLEEVRRLVLDFKEQYGGETRVEIRITVSTEETGERAKRLAEELKEELEKEGIEVEVEVEVAK sits at 0.04 or higher.
Given back: true (1)

Asked: Also uchl1_122_7443 (protein) MLTIEVKVSSSLSERTLEILKKYAEKLLENPKFEVKELSPGTKLLTITGELKDVSDEEILEIRNEALEEAGKDQSITPNERVSFGNALRTISRQVARALA ?
Given back: true (1)

Asked: Let us now turn to uchl1_199_7510 (protein) SSRTESIARNMAGRLLRYIMDPETARERARRLARRLITRRPGLSVEELTETFQLLVEYVAAERDPAVTRAVTDALVEAVREELGDEAAAAAVRARAEELL
Given back: false (0)

Asked: Request: uchl1_89_7574 (protein) DPRLDPATAARLRAIAERTEAALRRILTKAGVPQATIDAFLALVRAAADTTIADRAAAPAQLAALEAALRALTARVDPATAANVRLAMGPLLRLLEGVAQ
Given back: false (0)

These measurements were taken from the supplement of paper PMC12632987.
